# Tested on: A431
# ASSAY_NAME: whole-cell filipin (free cholesterol) integrated intensity, Z-score; higher = more cholesterol staining
# REPORTED_CONDITIONS: compound concentration in added solution (µM; 5 µl added to 20 µl cells): 10; 18 h
Counter-ions that a name gives are not always drawn.
ASSAY_METRIC: whole-cell filipin (z-score)

MOLECULE: CCCC(=O)Nc1ncnc2c1ncn2[C@@H]1O[C@@H]2COP(=O)(O)O[C@H]2[C@H]1OC(=O)CCC [Bucladesine sodium salt]
ASSAY_METRIC: whole-cell filipin (z-score)
RESULT: -0.132

MOLECULE: NCc1ccc(S(N)(=O)=O)cc1 [Mafenide hydrochloride]
ASSAY_METRIC: whole-cell filipin (z-score)
RESULT: -0.682

MOLECULE: COc1ccc(C2CNC(=O)C2)cc1OC1CCCC1 (configuration not stated)
ASSAY_METRIC: whole-cell filipin (z-score)
RESULT: -0.586

MOLECULE: CCN[C@H]1C[C@H](C)S(=O)(=O)c2sc(S(N)(=O)=O)cc21 [Dorzolamide hydrochloride]
ASSAY_METRIC: whole-cell filipin (z-score)
RESULT: 0.0896

MOLECULE: CCC(C)(CN(C)C)OC(=O)c1ccccc1 (configuration not stated) [Amyleine hydrochloride]
ASSAY_METRIC: whole-cell filipin (z-score)
RESULT: -0.884

MOLECULE: NS(=O)(=O)c1cc2c(cc1Cl)NCNS2(=O)=O [Hydrochlorothiazide]
ASSAY_METRIC: whole-cell filipin (z-score)
RESULT: -0.757

MOLECULE: NCCCCCC(=O)O
ASSAY_METRIC: whole-cell filipin (z-score)
RESULT: -0.556

MOLECULE: CCn1cc(C(=O)O)c(=O)c2cnc(N3CCNCC3)nc21
ASSAY_METRIC: whole-cell filipin (z-score)
RESULT: -0.242

MOLECULE: NS(=O)(=O)c1cc2c(cc1C(F)(F)F)NCNS2(=O)=O [Hydroflumethiazide]
ASSAY_METRIC: whole-cell filipin (z-score)
RESULT: -0.738

MOLECULE: CN1C2CCCC1CC(NC(=O)c1nn(C)c3ccccc13)C2 (configuration not stated)
ASSAY_METRIC: whole-cell filipin (z-score)
RESULT: 0.826

MOLECULE: CC(C)(O)c1ccccc1CC[C@@H](SCC1(CC(=O)O)CC1)c1cccc(/C=C/c2ccc3ccc(Cl)cc3n2)c1
ASSAY_METRIC: whole-cell filipin (z-score)
RESULT: -0.0363

MOLECULE: C[C@H](O)C(=O)Nc1c(I)c(C(=O)NC(CO)CO)c(I)c(C(=O)NC(CO)CO)c1I
ASSAY_METRIC: whole-cell filipin (z-score)
RESULT: -0.34

MOLECULE: O=C(CCCN1CCN(c2ccccn2)CC1)c1ccc(F)cc1
ASSAY_METRIC: whole-cell filipin (z-score)
RESULT: 0.0723

MOLECULE: CN(C)CCCC1(c2ccc(F)cc2)OCc2cc(C#N)ccc21 (configuration not stated) [Citalopram Hydrobromide]
ASSAY_METRIC: whole-cell filipin (z-score)
RESULT: 0.204

MOLECULE: CCN(CC)CCNC(=O)c1cc(Cl)c(N)cc1OC [Metoclopramide monohydrochloride]
ASSAY_METRIC: whole-cell filipin (z-score)
RESULT: -0.595

MOLECULE: CC(C)[N+](C)(CCOC(=O)C1c2ccccc2Oc2ccccc21)C(C)C [Propantheline bromide]
ASSAY_METRIC: whole-cell filipin (z-score)
RESULT: -0.217

MOLECULE: CCOC(=O)C1=C[C@]2(CC)CCCN3CCc4c(n1c1ccccc41)[C@@H]32
ASSAY_METRIC: whole-cell filipin (z-score)
RESULT: -0.413

MOLECULE: CCOc1cc(CC(=O)N[C@@H](CC(C)C)c2ccccc2N2CCCCC2)ccc1C(=O)O [Repaglinide]
ASSAY_METRIC: whole-cell filipin (z-score)
RESULT: 0.149

MOLECULE: CN(N=O)C(=O)N[C@@H](C=O)[C@@H](O)[C@H](O)[C@H](O)CO
ASSAY_METRIC: whole-cell filipin (z-score)
RESULT: -0.71

MOLECULE: CC1CCc2cc(F)cc3c(=O)c(C(=O)O)cn1c23 (configuration not stated)
ASSAY_METRIC: whole-cell filipin (z-score)
RESULT: -0.836

MOLECULE: O=P(O)(O)C(Cl)(Cl)P(=O)(O)O [Clodronate]
ASSAY_METRIC: whole-cell filipin (z-score)
RESULT: -0.177

MOLECULE: Cc1ccccc1OCC(O)CO (configuration not stated)
ASSAY_METRIC: whole-cell filipin (z-score)
RESULT: -0.27

MOLECULE: Nc1ccc(S(=O)(=O)Nc2ccnn2-c2ccccc2)cc1
ASSAY_METRIC: whole-cell filipin (z-score)
RESULT: -0.89

MOLECULE: O=C1C(O)=C([C@H]2CC[C@H](c3ccc(Cl)cc3)CC2)C(=O)c2ccccc21
ASSAY_METRIC: whole-cell filipin (z-score)
RESULT: -0.408

MOLECULE: Cc1cc(NS(=O)(=O)c2ccc(N)cc2)no1
ASSAY_METRIC: whole-cell filipin (z-score)
RESULT: -0.446

MOLECULE: CC1(C)[C@H](C(=O)O)N2C(=O)C[C@H]2S1(=O)=O
ASSAY_METRIC: whole-cell filipin (z-score)
RESULT: -0.128

MOLECULE: OCCN(CCO)c1nc(N2CCCCC2)c2nc(N(CCO)CCO)nc(N3CCCCC3)c2n1
ASSAY_METRIC: whole-cell filipin (z-score)
RESULT: -0.543

MOLECULE: COC1=CC(=O)C[C@@H](C)[C@]12Oc1c(Cl)c(OC)cc(OC)c1C2=O
ASSAY_METRIC: whole-cell filipin (z-score)
RESULT: -0.73

MOLECULE: Cc1c(-c2ccccc2)oc2c(C(=O)OCCN3CCCCC3)cccc2c1=O [Flavoxate hydrochloride]
ASSAY_METRIC: whole-cell filipin (z-score)
RESULT: -0.892

MOLECULE: C[N+]1(C)CCC(OC(=O)C(O)(c2ccccc2)C2CCCC2)C1 (configuration not stated) [Glycopyrrolate]
ASSAY_METRIC: whole-cell filipin (z-score)
RESULT: -0.296

MOLECULE: CC(=O)Oc1cc(C(C)C)c(OCCN(C)C)cc1C [Moxisylyte hydrochoride]
ASSAY_METRIC: whole-cell filipin (z-score)
RESULT: -0.91

MOLECULE: CC(C)NC[C@@H](O)COc1ccc(CC(N)=O)cc1 [(R)-(+)-Atenolol]
ASSAY_METRIC: whole-cell filipin (z-score)
RESULT: -0.23

The reported measurements were obtained from the supplement of paper PMC6607015.
